target: T1, SARS-CoV2 Spike ecto foldon Trimer expressed with a C-terminal myc-myc-hexahistidine (SARS-CoV-2, UniProt P0DTC2 14-1213); test: SPR Biacore, mAb captured by anti-hFc, 37C
T1 construct: extracellular domain
Please respond with reported koff for every item in the list.
Answers are plain numbers, in s⁻¹.

mAb14289 (antibody, V domains shown) VH: QVQLVQSGPEVKKPGASVKVSCKASGYTFTSYAISWVRQAPGQGLEWMGWISAYNGNTNYAQKLQGRVTMTTDTFTSTAYMELRSLRSDDTAVYYCAVPADHITFDYWGQGTLVTVSS VL: EIVLTQSPGTLSLSPGERATLSCRASQSVSSYLAWYQQKPGQAPRLLIHGASSRATGIPDRFSGSGSGTDFTLTISRLEPEDFAVYYCQQYGSSFLTFGGGTKVEIKR = 6.63e-05

Next, consider the following binder.
Q: // lookup koff for mAb15162 (antibody, V domains shown) VH: EVQLVETGGGLIQPGGSLRLSCAASEFIVSRNYMSWVRQAPGKGLEWVSLIYSGGSTYYADSVKGRFTISRDNSKNILYLQMNSLRAEDTAVYYCARDRGGISDYWGQGTLVTVSS VL: DIQMTQSPSSLSASVGDRVTITCQASQDINKYLNWFQQKPGKAPKLLIYDASNLETGVPSRFSGSGSGTDFTFTISSLQPEDIATYYCQQYDNLPRTFGQGTKLEIKR
Result: 0.000187
